Provide the reported Relative activity, S.r.301 origin of each item.
# Test system: crude enzyme which catalyses chiroinositol, S. r. 301 origin
# Assay text: Relative activities using various coenzymes (Table 2)
# Type: biochemical, Streptomyces roseogriseus 301
# Assay conditions: activity using NAD is set as 100%
# value in %; strip the unit string

Input NC(=S)c1ccc[n+]([C@@H]2O[C@H](COP(=O)([O-])OP(=O)(O)OC[C@H]3O[C@@H](n4cnc5c(N)ncnc54)[C@H](O)[C@@H]3O)[C@@H](O)[C@H]2O)c1 [thio-NAD, thio-nicotinamide adenine dinucleotide] , output reported Relative activity, S.r.301 origin.
6

Input NC(=S)c1ccc[n+]([C@@H]2O[C@H](COP(=O)([O-])OP(=O)(O)OC[C@H]3O[C@@H](n4cnc5c(N)ncnc54)[C@H](OP(=O)(O)O)[C@@H]3O)[C@@H](O)[C@H]2O)c1 [thio-NADP] , output reported Relative activity, S.r.301 origin.
0

Input NC(=O)c1ccc[n+]([C@@H]2O[C@H](COP(=O)([O-])OP(=O)(O)OC[C@H]3O[C@@H](n4cnc5c(N)ncnc54)[C@H](OP(=O)(O)O)[C@@H]3O)[C@@H](O)[C@H]2O)c1 [NADP] , output reported Relative activity, S.r.301 origin.
0

---

Provide the reported Relative activity of each item.
# System: dehydrogenase which catalyses chiroinositol (Bacillus sp. No. 3 origin)
# Assay text: Substrate specificity (Table 1)
# Assay type: biochemical
# Assay conditions: equal concentration of substrates; glycine-NaOH pH 9.8, thio-NAD/NADH cycling
# value in %; strip the unit string

Input O[C@H]1[C@H](O)[C@@H](O)[C@H](O)[C@@H](O)[C@H]1O , output reported Relative activity.
9

Input OC[C@@H](O)[C@@H](O)[C@H](O)[C@H](O)CO , output reported Relative activity.
0

Input O[C@H]1[C@@H](O)[C@@H](O)[C@@H](O)[C@@H](O)[C@@H]1O [epi-inositol] , output reported Relative activity.
0

Input O[C@H]1[C@H](O)[C@@H](O)[C@H](O)[C@@H](O)[C@@H]1O , output reported Relative activity.
0

Input O=C(CO)[C@@H](O)[C@H](O)[C@H](O)CO , output reported Relative activity.
0

Input O[C@H]1[C@H](O)[C@H](O)[C@@H](O)[C@H](O)[C@H]1O , output reported Relative activity.
100
